Exercise: state measured microsomal CLint at 1 µM for each of the molecules provided.
- protocol_text: Rat liver microsome stability test
- Format: in vitro ADME
- condition_parameters: rat, liver microsomes, pH 7.4; RLM 0.5; read-out: CLint(mic)
- Protocol: Preparation of Buffer Solution: 1. 100 mM potassium phosphate buffer solution, pH of 7.4 Preparation of Test Compound Solution: 1. A test compound solution (10 mM, 5 μL) was diluted with a methanol solution (495 μL), and a 100 μM solution was prepared; 2. Preparation of a working solution: the above solution (50 μL) was diluted with the potassium phosphate buffer solution (450 μL, 100 mM) so as to obtain diluents (10 μM). […]
Numbers only, in µL/min/mg.

{"molecule": "C=CC(=O)N(C)N1CCCC(n2nc(-c3ccc(Oc4ccccc4)cc3)c3c(N)ncnc32)C1 (stereo not drawn)", "microsomal CLint at 1 µM, µL/min/mg": 366}
{"molecule": "C=CC(=O)NN1CCCC(n2nc(-c3ccc(Oc4ccccc4)cc3)c3c(N)ncnc32)C1 (stereo not drawn)", "microsomal CLint at 1 µM, µL/min/mg": 155}

Turning to the following molecule.
Consider the molecule C=CC(=O)N1CCCC(n2nc(/C=C/c3ccccn3)c3c(N)ncnc32)C1 (stereo not drawn) and give its measured microsomal CLint at 1 µM. 101

###

- protocol_text: Pharmacokinetic study, single intravenous and oral dose, beagle dogs
- Assay type: in vivo
- condition_parameters: male, blood, Dog, PO, 30 mg/kg
- Source text: Biological Embodiment 7: Pharmacokinetic Study of Performing Respective Single Intravenous and Oral Dose Delivery with Test Samples on SD Rats and Beagle Dogs […]
assay_readout: AUC(0-t) (ng·h/mL)
Answers are plain numbers, in ng·h/mL.

Tell me the measured AUC(0-t) of C=CC(=O)NN1CCCC(n2nc(-c3ccc(Oc4ccccc4)cc3)c3c(N)ncnc32)C1 (stereo not shown) [Embodiment 6] , please. 7420

###

- protocol_text: Pharmacokinetic study, single intravenous and oral dose, SD rats
- Assay type: in vivo
- condition_parameters: male, blood, Rat, IV, 2 mg/kg, read-out: T½ (converted)
assay_readout: half-life (min)
One number for each entry, in min.

So what does the record say about half-life for C=CC(=O)NN1CCCC(n2nc(-c3ccc(Oc4ccccc4)cc3)c3c(N)ncnc32)C1 (stereo not shown) ? 10.8

###

- assayed_target: UniProt Q06187
- Sequence (Q06187 whole entry): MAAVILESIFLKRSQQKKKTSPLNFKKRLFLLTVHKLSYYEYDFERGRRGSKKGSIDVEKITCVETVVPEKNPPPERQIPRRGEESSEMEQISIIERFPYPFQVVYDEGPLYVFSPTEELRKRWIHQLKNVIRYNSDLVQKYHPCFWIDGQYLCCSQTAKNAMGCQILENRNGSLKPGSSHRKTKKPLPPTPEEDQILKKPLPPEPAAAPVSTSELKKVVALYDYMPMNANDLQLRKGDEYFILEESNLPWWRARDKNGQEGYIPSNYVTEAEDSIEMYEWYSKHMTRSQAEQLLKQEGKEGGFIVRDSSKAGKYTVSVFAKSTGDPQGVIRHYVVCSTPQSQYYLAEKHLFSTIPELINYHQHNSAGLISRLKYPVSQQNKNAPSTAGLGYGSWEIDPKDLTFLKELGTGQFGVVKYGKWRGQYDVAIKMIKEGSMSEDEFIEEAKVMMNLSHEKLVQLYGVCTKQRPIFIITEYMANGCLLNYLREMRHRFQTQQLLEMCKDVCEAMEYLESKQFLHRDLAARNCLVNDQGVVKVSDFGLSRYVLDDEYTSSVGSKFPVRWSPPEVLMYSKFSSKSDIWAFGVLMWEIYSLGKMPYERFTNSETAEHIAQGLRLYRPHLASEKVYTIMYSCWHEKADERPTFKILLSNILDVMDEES
- protocol_text: Determination of Btk enzyme inhibitory activity
- Type: biochemical
- condition_parameters: 2 nM BTK
Hi there, I'd appreciate the recorded IC50 for every entry that follows.
Give bare numbers, in nM.

{"compound": "C=CC(=O)NN1CCC[C@@H](n2nc(-c3ccc(Oc4ccccc4F)cc3)c3c(N)ncnc32)C1 [Embodiment 42]", "IC50 / nM": 0.9}

Now examine the next entry.
What does the data say about its IC50? Entry: C=CC(=O)NN1CCCC(n2nc(-c3ccc(Oc4ccccc4)cc3)c3c(N)ncnc32)C1 (stereo not shown) [Embodiment 6] 0.27

###

- protocol_text: Pharmacokinetic study, single intravenous and oral dose, beagle dogs
- Assay type: in vivo
- condition_parameters: male, blood, Dog, IV, 2 mg/kg
assay_readout: AUC(0-t) (ng·h/mL)
Answers are plain numbers, in ng·h/mL.

Could you share which AUC(0-t) value was measured for C=CC(=O)NN1CCCC(n2nc(-c3ccc(Oc4ccccc4)cc3)c3c(N)ncnc32)C1 (stereo not shown) ? 888

###

- protocol_text: Pharmacokinetic study, single intravenous and oral dose, SD rats
- Format: in vivo
- condition_parameters: male, rat, blood, oral, 10 mg/kg
assay_readout: bioavailability

Please report the recorded bioavailability for C=CC(=O)NN1CCCC(n2nc(-c3ccc(Oc4ccccc4)cc3)c3c(N)ncnc32)C1 (stereo not shown) [Embodiment 6] . 32.2%

###

- assayed_target: hERG channel (Homo sapiens, UniProt Q12809)
- Sequence (Q12809 whole entry): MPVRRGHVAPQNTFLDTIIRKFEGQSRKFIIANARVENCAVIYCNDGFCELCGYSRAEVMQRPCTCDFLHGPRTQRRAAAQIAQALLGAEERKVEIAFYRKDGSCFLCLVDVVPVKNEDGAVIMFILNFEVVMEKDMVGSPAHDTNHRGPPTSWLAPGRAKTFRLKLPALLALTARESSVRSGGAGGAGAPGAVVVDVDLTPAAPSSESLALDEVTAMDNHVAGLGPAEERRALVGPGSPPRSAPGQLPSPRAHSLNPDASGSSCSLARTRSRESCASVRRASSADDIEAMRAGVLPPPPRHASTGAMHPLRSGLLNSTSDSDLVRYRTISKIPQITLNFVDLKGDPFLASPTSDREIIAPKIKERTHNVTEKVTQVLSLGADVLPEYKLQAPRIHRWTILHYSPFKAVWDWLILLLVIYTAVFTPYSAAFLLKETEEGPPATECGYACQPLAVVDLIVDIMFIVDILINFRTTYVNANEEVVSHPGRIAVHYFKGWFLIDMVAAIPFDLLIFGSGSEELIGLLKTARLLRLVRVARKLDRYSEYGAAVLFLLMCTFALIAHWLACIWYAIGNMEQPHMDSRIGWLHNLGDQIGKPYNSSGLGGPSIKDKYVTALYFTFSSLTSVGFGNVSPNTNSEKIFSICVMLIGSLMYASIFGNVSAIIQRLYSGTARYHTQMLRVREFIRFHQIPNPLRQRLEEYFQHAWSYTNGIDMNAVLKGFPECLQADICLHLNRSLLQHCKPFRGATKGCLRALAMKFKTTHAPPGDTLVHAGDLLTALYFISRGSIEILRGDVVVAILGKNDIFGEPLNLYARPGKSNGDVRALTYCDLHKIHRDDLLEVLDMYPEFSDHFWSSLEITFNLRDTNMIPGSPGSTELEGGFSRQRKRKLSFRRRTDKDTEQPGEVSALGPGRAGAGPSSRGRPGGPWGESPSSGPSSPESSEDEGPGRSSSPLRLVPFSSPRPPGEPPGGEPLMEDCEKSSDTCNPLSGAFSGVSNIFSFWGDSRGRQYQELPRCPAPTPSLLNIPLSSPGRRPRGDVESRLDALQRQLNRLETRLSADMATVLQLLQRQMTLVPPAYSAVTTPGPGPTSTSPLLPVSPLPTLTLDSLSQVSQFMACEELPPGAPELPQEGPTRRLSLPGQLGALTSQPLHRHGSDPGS
- protocol_text: hERG current blocking test (whole-cell patch clamp)
assay_readout: pIC50
Answers are plain numbers, as −log10 of the molar value.

Find pIC50 (hERG channel (Homo sapiens, UniProt Q12809)) for the entry C=CC(=O)NN1CCCC(n2nc(-c3ccc(Oc4ccccc4)cc3)c3c(N)ncnc32)C1 (stereo not shown) [Embodiment 6] 5.09

###

- protocol_text: Human liver microsome stability test
- Format: in vitro ADME
- condition_parameters: human, liver microsomes, pH 7.4; HLM 0.5; read-out: CLint(mic)
assay_readout: microsomal CLint at 1 µM (µL/min/mg)
One number for each entry, in µL/min/mg.

{"compound": "C=CC(=O)NN1CCCC(n2nc(-c3ccc(Oc4ccccc4)cc3)c3c(N)ncnc32)C1 (stereo not drawn) [Embodiment 6]", "microsomal CLint at 1 µM, µL/min/mg": 325}
{"compound": "C=CC(=O)N(C)N1CCCC(n2nc(-c3ccc(Oc4ccccc4)cc3)c3c(N)ncnc32)C1 (stereo not drawn) [Embodiment 8]", "microsomal CLint at 1 µM, µL/min/mg": 374}

# input for lookup
Which value of microsomal CLint at 1 µM has been reported for C=CC(=O)N1CCCC(n2nc(/C=C/c3ccccn3)c3c(N)ncnc32)C1 (stereo not drawn) [Embodiment 13] in the records? 67.6

###

- protocol_text: Pharmacokinetic study, single intravenous and oral dose, SD rats
- Format: in vivo
- condition_parameters: male, blood, Rat, PO, 10 mg/kg
assay_readout: Cmax (ng/mL)
Numbers only, in ng/mL.

# get_value(readout='Cmax', item= C=CC(=O)NN1CCCC(n2nc(-c3ccc(Oc4ccccc4)cc3)c3c(N)ncnc32)C1 (stereo not shown) [Embodiment 6] ) 447

###

- Test system: DOHH-2
- protocol_text: In vitro tumor cell proliferation (CellTiter-Glo), DOHH-2
- Format: cell-based
- condition_parameters: Homo sapiens, DOHH-2, 72 h; read-out: Growth IC50
assay_readout: IC50

What does the record list as IC50 for C=CC(=O)NN1CCCC(n2nc(-c3ccc(Oc4ccccc4)cc3)c3c(N)ncnc32)C1 (stereo not shown) ? < 3 nM

###

Give measured half-life at 1 µM for each item. Keep answers brief.
- protocol_text: Rat liver microsome stability test
- Assay type: in vitro ADME
- condition_parameters: rat, liver microsomes, pH 7.4; RLM 0.5 (0.5 mg protein/mL)
The reply should consist of the numeric value with the unit placed after it.

Record excerpt, results attached:
{"compound": "C=CC(=O)N(C)N1CCCC(n2nc(-c3ccc(Oc4ccccc4)cc3)c3c(N)ncnc32)C1 (stereo not drawn)", "half-life at 1 µM": "3.8 min"}
{"compound": "C=CC(=O)N1CCCC(n2nc(/C=C/c3ccccn3)c3c(N)ncnc32)C1 (stereo not drawn)", "half-life at 1 µM": "13.7 min"}

As a next step, examine the compound that follows.
Which half-life at 1 µM value belongs to C=CC(=O)NN1CCCC(n2nc(-c3ccc(Oc4ccccc4)cc3)c3c(N)ncnc32)C1 (stereo not drawn) ? 8.9 min

###

- protocol_text: Pharmacokinetic study, single intravenous and oral dose, beagle dogs
- Type: in vivo
- condition_parameters: male, blood, Dog, IV, 2 mg/kg, read-out: T½ (converted)
assay_readout: half-life (min)
Numbers only, in min.

Consider the molecule C=CC(=O)NN1CCCC(n2nc(-c3ccc(Oc4ccccc4)cc3)c3c(N)ncnc32)C1 (stereo not shown) [Embodiment 6] and give its measured half-life. 48

###

- protocol_text: Pharmacokinetic study, single intravenous and oral dose, beagle dogs
- Assay type: in vivo
- condition_parameters: male, blood, Dog, PO, 30 mg/kg, read-out: T½ (converted)
- From the text: Biological Embodiment 7: Pharmacokinetic Study of Performing Respective Single Intravenous and Oral Dose Delivery with Test Samples on SD Rats and Beagle Dogs […]
assay_readout: half-life (min)
Give bare numbers, in min.

What does the record list as half-life for C=CC(=O)NN1CCCC(n2nc(-c3ccc(Oc4ccccc4)cc3)c3c(N)ncnc32)C1 (stereo not shown) ? 45

###

- Test system: Raji
- protocol_text: In vitro tumor cell proliferation (CellTiter-Glo), Raji
- Format: cell-based
- condition_parameters: Homo sapiens, 72 h, read-out: Growth IC50
assay_readout: IC50

Item C=CC(=O)NN1CCCC(n2nc(-c3ccc(Oc4ccccc4)cc3)c3c(N)ncnc32)C1 (stereo not shown) has what recorded IC50? > 10 µM

###

- protocol_text: Pharmacokinetic study, single intravenous and oral dose, SD rats
- Assay type: in vivo
- condition_parameters: male, blood, Rat, IV, 2 mg/kg
assay_readout: Cmax (ng/mL)
One number for each entry, in ng/mL.

Entry under review: C=CC(=O)NN1CCCC(n2nc(-c3ccc(Oc4ccccc4)cc3)c3c(N)ncnc32)C1 (stereo not shown) [Embodiment 6] . Reported Cmax? 658

###

- protocol_text: Pharmacokinetic study, single intravenous and oral dose, SD rats
- Type: in vivo
- condition_parameters: male, blood, Rat, PO, 10 mg/kg
- Description: Biological Embodiment 7: Pharmacokinetic Study of Performing Respective Single Intravenous and Oral Dose Delivery with Test Samples on SD Rats and Beagle Dogs […]
assay_readout: AUC(0-t)
A bare number is not enough; add the unit after it.

Could you share which AUC(0-t) value was measured for C=CC(=O)NN1CCCC(n2nc(-c3ccc(Oc4ccccc4)cc3)c3c(N)ncnc32)C1 (stereo not shown) ? 449 ng·h/mL
